These entries and their values trace back to ChEMBL document CHEMBL5352406.

Measurement record for CDK2/Cyclin A2 (Homo sapiens); quantity recorded: pIC50.
pIC50: −log10 of the molar value.
Assay endpoint: pIC50

>>> recorded_number("N[C@H]1CCN(c2c3c(nc4ccc(-c5ccnc(NC(=O)C6CC6)n5)cc24)CCCCCC3)C1")
7.73
>>> recorded_number("N[C@H]1CCN(c2c3c(nc4ccc(-c5ccnc(NC(=O)C6CCC6)c5)cc24)CCC3)C1")
7.07
>>> recorded_number("N[C@H]1CCN(c2c3c(nc4ccc(-c5ccnc(NC(=O)C6CC6)c5)cc24)CCCCC3)C1")
8.26
>>> recorded_number("N[C@H]1CCN(c2c3c(nc4ccc(-c5ccnc(NC(=O)C6CC6)c5)cc24)CCCCCC3)C1")
8.53

====

Test: Acute toxicity in Kunming mouse assessed as survival at 20 mg/kg, po measured for 2 weeks
Type: organism-based
Settings: in vivo
Assay endpoint: survival at 336 h (%)

>>> recorded_number("Cl.N[C@H]1CCN(c2c3c(nc4ccc(-c5ccnc(NC(=O)C6CC6)n5)cc24)CCCCC3)C1")
100

====

Molecular target: CDK2/Cyclin A2 (Homo sapiens, UniProt P24941)
pIC50: −log10 of the molar value.
pIC50 for assorted compounds
Assay endpoint: pIC50

>>> recorded_number("N[C@H]1CCN(c2c3c(nc4ccc(-c5ccnc(NC(=O)C6CCC6)c5)cc24)CCCCC3)C1")
7.97
>>> recorded_number("N[C@@H]1CCN(c2c3c(nc4ccc(-c5ccnc(NC(=O)C6CC6)c5)cc24)CCCCC3)C1")
8.19
>>> recorded_number("N[C@H]1CCN(c2c3c(nc4ccc(-c5ccnc(NC(=O)C6CCC6)c5)cc24)CCCCCC3)C1")
8.11
>>> recorded_number("N[C@H]1CCN(c2c3c(nc4ccc(-c5ccnc(NC(=O)C6CC6)c5)cc24)CCC3)C1")
6.60

====

Target: Acetylcholinesterase (Electrophorus electricus, UniProt O42275)
Sequence (O42275 whole entry): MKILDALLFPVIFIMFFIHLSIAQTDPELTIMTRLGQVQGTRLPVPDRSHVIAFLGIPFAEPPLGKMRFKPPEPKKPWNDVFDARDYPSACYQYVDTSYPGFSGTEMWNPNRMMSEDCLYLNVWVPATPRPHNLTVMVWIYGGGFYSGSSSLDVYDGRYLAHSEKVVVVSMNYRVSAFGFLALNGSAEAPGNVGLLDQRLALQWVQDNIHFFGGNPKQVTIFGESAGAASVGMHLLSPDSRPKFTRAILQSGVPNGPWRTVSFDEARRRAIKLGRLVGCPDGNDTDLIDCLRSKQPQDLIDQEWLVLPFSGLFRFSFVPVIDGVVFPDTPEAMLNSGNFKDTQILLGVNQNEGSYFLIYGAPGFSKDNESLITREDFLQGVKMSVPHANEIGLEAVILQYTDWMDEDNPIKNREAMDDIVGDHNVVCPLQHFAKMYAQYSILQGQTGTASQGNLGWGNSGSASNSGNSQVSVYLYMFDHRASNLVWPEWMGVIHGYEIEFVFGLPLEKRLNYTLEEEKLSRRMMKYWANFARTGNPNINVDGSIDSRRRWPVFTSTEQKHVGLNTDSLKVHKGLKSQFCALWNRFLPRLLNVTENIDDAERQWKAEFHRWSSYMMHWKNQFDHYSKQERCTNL
Assay endpoint: IC50 (µM)

>>> recorded_number("N[C@H]1CCN(c2c3c(nc4ccc(-c5ccnc(NC(=O)C6CC6)c5)cc24)CCCCC3)C1")
31.1
>>> recorded_number("N[C@H]1CCN(c2c3c(nc4ccc(-c5ccnc(NC(=O)C6CC6)n5)cc24)CCCCCC3)C1")
20.7
>>> recorded_number("N[C@H]1CCN(c2c3c(nc4ccc(-c5ccnc(NC(=O)C6CCCCC6)c5)cc24)CCCCC3)C1")
20.8
>>> recorded_number("CN1CCN(S(=O)(=O)c2ccc(Nc3cc(-c4ccc5nc6c(c(N7CC[C@H](N)C7)c5c4)CCCCC6)ccn3)cc2)CC1")
24.2
>>> recorded_number("N[C@H]1CCN(c2c3c(nc4ccc(-c5ccnc(Nc6ccc(S(=O)(=O)N7CCNCC7)cc6)c5)cc24)CCCCC3)C1")
19.5
>>> recorded_number("N[C@H]1CCN(c2c3c(nc4ccc(-c5ccnc(NC(=O)C6CCC6)c5)cc24)CCC3)C1")
1.76
>>> recorded_number("CN(C)S(=O)(=O)c1ccc(Nc2cc(-c3ccc4nc5c(c(N6CC[C@H](N)C6)c4c3)CCCCC5)ccn2)cc1")
35.2

====

Measurement record for CDK9/cyclin T1 (Homo sapiens); quantity recorded: IC50.
Assay endpoint: IC50 (nM)

>>> recorded_number("Cl.N[C@H]1CCN(c2c3c(nc4ccc(-c5ccnc(NC(=O)C6CC6)n5)cc24)CCCCC3)C1")
2.41
>>> recorded_number("N[C@H]1CCN(c2c3c(nc4ccc(-c5ccnc(NC(=O)C6CCC6)c5)cc24)CCCCC3)C1")
4.11
>>> recorded_number("N[C@H]1CCN(c2c3c(nc4ccc(-c5ccnc(NC(=O)C6CCCC6)c5)cc24)CCCCC3)C1")
2.77
>>> recorded_number("N[C@H]1CCN(c2c3c(nc4ccc(-c5ccncc5)cc24)CCCCC3)C1")
8.35
>>> recorded_number("N[C@H]1CCN(c2c3c(nc4ccc(-c5ccnc(NC(=O)C6CC6)c5)cc24)CCC3)C1")
3.36
>>> recorded_number("CN(C)S(=O)(=O)c1ccc(Nc2cc(-c3ccc4nc5c(c(N6CC[C@H](N)C6)c4c3)CCCCC5)ccn2)cc1")
102
>>> recorded_number("N[C@H]1CCN(c2c3c(nc4ccc(-c5ccnc(NC(=O)C6CC6)c5)cc24)CCCC3)C1")
2.23
>>> recorded_number("N[C@H]1CCN(c2c3c(nc4ccc(-c5ccnc(NC(=O)C6CC6)n5)cc24)CCCCCC3)C1")
2.88
>>> recorded_number("N[C@H]1CCN(c2c3c(nc4ccc(-c5ccnc(NC(=O)C6CCC6)c5)cc24)CCCCCC3)C1")
2.97
>>> recorded_number("N[C@H]1CCN(c2c3c(nc4ccc(-c5ccnc(NC(=O)C6CC6)c5)cc24)CCCCC3)C1")
2.19
>>> recorded_number("N[C@H]1CCN(c2c3c(nc4ccc(-c5ccnc(NC(=O)C6CCCCC6)c5)cc24)CCCCC3)C1")
2.18
>>> recorded_number("N[C@H]1CCN(c2c3c(nc4ccc(-c5cc(NC(=O)C6CC6)ncn5)cc24)CCCCC3)C1")
5.75
>>> recorded_number("N[C@H]1CCN(c2c3c(nc4ccc(-c5ccnc(NC(=O)C6CC6)c5)cc24)-c2ccccc2CCC3)C1")
111
>>> recorded_number("N[C@H]1CCN(c2c3c(nc4ccc(-c5ccnc(NC(=O)C6CCC6)c5)cc24)CCC3)C1")
6.39
